Assay: Tmax in rat at 1 mg/kg, iv or 1 mg/kg, po
Type: ADME, organism-based
Settings: in vivo
Reported Property: Tmax (h)
Quick reminder: number only, in h, skip the unit.

Kindly indicate its recorded Tmax. Item: O=C(Nc1cccnn1)N1CCC(=Cc2cccc(Oc3ccc(C(F)(F)F)cn3)c2)CC1
4

----------
Assay: Oral bioavailability in rat at 1 mg/kg
Assay type: ADME, organism-based
Conditions: in vivo
Reported Property: bioavailability (%)
Your answer should be a plain number; it is taken to be in %.

Tell me bioavailability reported for O=C(Nc1cccnn1)N1CCC(=Cc2cccc(Oc3ccc(C(F)(F)F)cn3)c2)CC1
88

----------
Experiment: Tmax in dog at 0.5 mg/kg, iv or 0.5 mg/kg, po
Format: ADME, organism-based, Canis lupus familiaris
Conditions: in vivo
Reported Property: Tmax (h)
// note: answer is a bare numeric in h

Could you please provide reported Tmax for O=C(Nc1cccnn1)N1CCC(=Cc2cccc(Oc3ccc(C(F)(F)F)cn3)c2)CC1 ? Thanks!
1

----------
Experiment: Clearance in rat at 1 mg/kg, iv or 1 mg/kg, po
Type: ADME, organism-based
Conditions: in vivo
Reported Property: clearance (mL/min/kg)
Hi! Could you send only the number? It should be in mL/min/kg, unit omitted.

Report measured clearance; entry is O=C(Nc1cccnn1)N1CCC(=Cc2cccc(Oc3ccc(C(F)(F)F)cn3)c2)CC1
3

----------
Molecular target: Fatty-acid amide hydrolase 1 (Homo sapiens) (UniProt O00519)
Sequence (O00519 whole entry, the tested form may be a part): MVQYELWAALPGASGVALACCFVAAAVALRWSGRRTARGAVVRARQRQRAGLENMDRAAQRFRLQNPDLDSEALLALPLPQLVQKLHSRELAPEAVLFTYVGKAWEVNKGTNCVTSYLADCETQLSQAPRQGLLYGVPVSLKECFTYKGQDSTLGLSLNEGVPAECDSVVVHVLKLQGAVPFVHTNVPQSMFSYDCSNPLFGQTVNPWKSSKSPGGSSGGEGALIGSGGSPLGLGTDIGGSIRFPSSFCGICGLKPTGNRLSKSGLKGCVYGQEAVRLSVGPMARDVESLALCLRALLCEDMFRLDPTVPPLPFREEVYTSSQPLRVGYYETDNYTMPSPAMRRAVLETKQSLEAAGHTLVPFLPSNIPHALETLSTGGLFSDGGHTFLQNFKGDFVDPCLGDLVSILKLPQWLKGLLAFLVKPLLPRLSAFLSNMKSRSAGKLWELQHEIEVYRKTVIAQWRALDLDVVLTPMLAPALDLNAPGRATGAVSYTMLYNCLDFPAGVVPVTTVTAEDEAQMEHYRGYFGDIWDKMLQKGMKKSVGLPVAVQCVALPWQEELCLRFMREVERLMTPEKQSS
Test: Irreversible inhibition of His-tagged human FAAH N-terminal transmembrane-deleted truncated form expressed in Escherichia coli assessed as ratio of Kinact to Ki by GDH-coupled FAAH assay
Decide using Ratio alone. Strictly below 2000 M⁻¹ s⁻¹: y. Equal to or above 2000 M⁻¹ s⁻¹: n.

Does O=C(Nc1cccnc1)N1CCC/C(=C\c2cccc(Oc3ccc(C(F)(F)F)cn3)c2)C1 have Ratio strictly under 2000 M⁻¹ s⁻¹?
y

Item O=C(Nc1noc2ccccc12)N1CCC(=Cc2cccc(Oc3ccc(C(F)(F)F)cn3)c2)CC1 : Ratio beneath 2000 M⁻¹ s⁻¹, strictly?
n

Lab log: compare recorded Ratio with 2000 M⁻¹ s⁻¹; is it strictly lower for Cc1ccnc(Oc2cccc(C=C3CCN(C(=O)Nc4cccnn4)CC3)c2)c1 ?
y

Hi there! Is Ratio for Cc1cccc(Oc2cccc(C=C3CCN(C(=O)Nc4cccnn4)CC3)c2)n1 below 2000 M⁻¹ s⁻¹, do you know?
y

Consider the molecule Cc1cccnc1Oc1cccc(C=C2CCN(C(=O)Nc3cccnn3)CC2)c1 . Is its Ratio strictly less than 2000 M⁻¹ s⁻¹?
n

----------
Assay: Half life in dog at 0.5 mg/kg, iv
Assay type: ADME, organism-based, Canis lupus familiaris
Design: dose 0.5 mg/kg, route intravenous
Details: in vivo
Reported Property: half-life (h)
The figure you give is taken to be in h; do not add the unit.

Item O=C(Nc1cccnn1)N1CCC(=Cc2cccc(Oc3ccc(C(F)(F)F)cn3)c2)CC1 : provide half-life
35.2

----------
Assay: Volume of distribution at steady state in dog at 0.5 mg/kg, iv or 0.5 mg/kg, po
Format: ADME, organism-based, Canis lupus familiaris
Conditions: in vivo, read-out: Vdss
Reported Property: Vd (L/kg)
Only the number, expressed in L/kg, is required.

Report measured Vd; entry is O=C(Nc1cccnn1)N1CCC(=Cc2cccc(Oc3ccc(C(F)(F)F)cn3)c2)CC1
2.9

----------
Experiment: Clearance in dog at 0.5 mg/kg, iv or 0.5 mg/kg, po
Type: ADME, organism-based, Canis lupus familiaris
Conditions: in vivo
Reported Property: clearance (mL/min/kg)
# output: bare number, implied unit mL/min/kg

Supply measured clearance of O=C(Nc1cccnn1)N1CCC(=Cc2cccc(Oc3ccc(C(F)(F)F)cn3)c2)CC1 in your reply.
1.3

----------
Molecular target: Cytochrome P450 3A4 (Homo sapiens, UniProt P08684)
Sequence (P08684 whole entry): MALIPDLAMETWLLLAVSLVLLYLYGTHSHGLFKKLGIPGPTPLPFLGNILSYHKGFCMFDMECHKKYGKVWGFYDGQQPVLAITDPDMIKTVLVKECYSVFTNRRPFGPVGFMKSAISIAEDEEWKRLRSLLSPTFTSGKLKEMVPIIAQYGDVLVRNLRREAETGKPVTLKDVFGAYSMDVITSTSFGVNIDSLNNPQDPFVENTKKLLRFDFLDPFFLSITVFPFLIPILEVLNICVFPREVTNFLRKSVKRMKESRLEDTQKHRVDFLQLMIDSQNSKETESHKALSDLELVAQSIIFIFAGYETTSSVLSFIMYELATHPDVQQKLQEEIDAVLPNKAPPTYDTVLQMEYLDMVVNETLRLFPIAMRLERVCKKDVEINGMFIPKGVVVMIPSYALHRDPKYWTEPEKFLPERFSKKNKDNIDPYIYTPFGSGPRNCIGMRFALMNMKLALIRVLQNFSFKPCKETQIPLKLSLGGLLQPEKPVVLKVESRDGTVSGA
Test: Inhibition of CYP3A4 uisng testosterone substrate
Assay type: ADME
Reported Property: pIC50
As a rule, pIC50 stands for the negative log10 of the concentration, concentration in M.

Consider the molecule O=C(Nc1cnccn1)N1CCC(=Cc2cccc(Oc3ccc(C(F)(F)F)cn3)c2)CC1 . State its measured pIC50.
4.63

Name the recorded pIC50 of the molecule listed here: Cc1ccc(NC(=O)N2CCC(=Cc3cccc(Oc4ccc(C(F)(F)F)cn4)c3)CC2)cn1
5.52

Please supply the value of reported pIC50 for the item O=C(Nc1cccnc1)N1CCC(=Cc2cccc(Oc3ccc(C(F)(F)F)cn3)c2)CC1
6.10

----------
Assay: Cmax in rat at 1 mg/kg, po
Type: ADME, organism-based
Set-up: dose 1 mg/kg, route oral
Conditions: in vivo
Reported Property: Cmax (ng/mL)
Kindly provide the numeric value in ng/mL only, without the unit symbol.

Give a short answer stating reported Cmax for O=C(Nc1cccnn1)N1CCC(=Cc2cccc(Oc3ccc(C(F)(F)F)cn3)c2)CC1 .
256

----------
Assay: Volume of distribution at steady state in rat at 1 mg/kg, iv or 1 mg/kg, po
Format: ADME, organism-based
Settings: in vivo, read-out: Vdss
Reported Property: Vd (L/kg)
Entry rule: numbers only, all in L/kg.

Look up and report measured Vd for this entry: O=C(Nc1cccnn1)N1CCC(=Cc2cccc(Oc3ccc(C(F)(F)F)cn3)c2)CC1
3.2
